Hey, just so you know, these numbers are from patent US20240400689A1.

test-target: T1, human CD276 protein (human, UniProt Q5ZPR3 29-534)
T1 construct: whole, on cells; for SKOV3 and the other cancer lines the protein is the cells' own; also called B7-H3; B7H3
T1 sequence (looked up): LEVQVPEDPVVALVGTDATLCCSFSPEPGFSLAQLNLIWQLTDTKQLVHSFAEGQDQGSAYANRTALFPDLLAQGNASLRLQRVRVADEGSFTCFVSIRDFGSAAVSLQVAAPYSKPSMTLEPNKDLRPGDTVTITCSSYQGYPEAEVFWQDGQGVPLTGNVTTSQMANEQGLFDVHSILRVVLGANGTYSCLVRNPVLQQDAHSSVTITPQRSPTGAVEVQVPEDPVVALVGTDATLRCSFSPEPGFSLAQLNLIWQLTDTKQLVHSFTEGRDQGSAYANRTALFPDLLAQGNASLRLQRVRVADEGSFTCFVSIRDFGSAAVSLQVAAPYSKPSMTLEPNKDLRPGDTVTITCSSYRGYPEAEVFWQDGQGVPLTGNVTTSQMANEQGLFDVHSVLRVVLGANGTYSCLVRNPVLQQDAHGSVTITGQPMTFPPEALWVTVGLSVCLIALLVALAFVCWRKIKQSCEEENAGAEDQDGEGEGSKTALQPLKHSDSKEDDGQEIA
experiment-summary: FACS on SKOV3 cells
measured-endpoint: EC50 (µg/mL)

binder	test-result
30-C7-C11-D4 (human IgG1 chimeric antibody) (antibody, V domains shown, human IgG1 chimeric antibody of the mouse clone) VH: EVQLVESGPGLVKPSQSLSLTCTVTGYSITSDYAWNWIRQFPGNKLEWMGYISHSGSTSYNPSLKSRISITRDTSKNQFFLQLNSVTTEDTATYYCARSLGRRWYFDVWGAGTTVTVSS VL: DIVMTQSPSSLAMSVGQKVTLSCKSSQSLLNSSTQKNYLAWYQQKPGQSPKLLVYFASTRDSGVPDRFIGSGSGTEFTLTISSVQAEDLADYFCQQHYIIPFTFGAGTKLEIK	0.282
6-H11-G5-D8 (human IgG1 chimeric antibody) (antibody, V domains shown, human IgG1 chimeric antibody of the mouse clone) VH: EVQLQESGPELVKPGTSVKLSCKASGYTFTSYDINWVRQRPEQGLEWIGWIFPGNGDTYYNEKFKGKATLTSDKSSSTAYMQLSRLTSEDSAVYFCARDLRLGTFDYWGQGTTLTVSS VL: QIVLTQSPEIMSASPGEKVTMTCSASSSVSYIHWYQQKSGTSPKRWIYDTSKLASGVPARFSGSGSGTSYSLTIRSMEAEDAATYYCQQGSSNPRTFGGGTKLELK	1.78
20-F8-B5-G2 (human IgG1 chimeric antibody) (antibody, V domains shown, human IgG1 chimeric antibody of the mouse clone) VH: EVQLQESGPSLVKPSQTLSLTCSVTGDSITSAYWNWIRKFPGNKLEYMGYISNSGSTYYNPSLKSRISITRDTSKNQYYLQLNSVTTEDTGTYYCVRGERYYGYGAYWGQGTLVTVSA VL: DIVMTQATPSVPVTPGESISISCRSSKSLLHSNGNTYLYWFLQRPGQSPQLLIYRMSNLASGVPDRFSGSGSGTAFTLRISRVEAEDVGVYYCMQHLEYPFTFGAGTKLELK	1.11
